Cited source for all entries: patent US20250339399A1

Below, each entry is listed alongside its reported Concentration of guest molecule in solution.
ASSAY NOTES: Binary supramolecular self-assembly systems of polymer and target: guest concentration over incubation time (Comparative Example 2)
Assay type: physicochemical
RUN PARAMETERS: binary: 0.5% 102H; 6 h
Expressed in µg/mL, but write only the number.

Check out these entries, answers already filled in.
Reported Concentration of guest molecule in solution for O=C1[C@H](CC[C@H](O)c2ccc(F)cc2)[C@@H](c2ccc(O)cc2)N1c1ccc(F)cc1 was 86.6

Measured Concentration of guest molecule in solution, CNC(=O)c1cc(Oc2ccc(NC(=O)Nc3ccc(Cl)c(C(F)(F)F)c3)cc2)ccn1 : 102.9

Consider CCCNS(=O)(=O)Nc1ncnc(OCCOc2ncc(Br)cn2)c1-c1ccc(Br)cc1 . Its measured Concentration of guest molecule in solution is 89.5

Lab note: CC(=O)c1c(C)c2cnc(Nc3ccc(N4CCNCC4)cn3)nc2n(C2CCCC2)c1=O gave Concentration of guest molecule in solution of 154.0

O=C1C[C@@H](c2ccc(O)cc2)Oc2cc(O)cc(O)c21 has a reported Concentration of guest molecule in solution of 383.3

---
response.value for COc1ccc(-n2nc(C(N)=O)c3c2C(=O)N(c2ccc(N4CCCCC4=O)cc2)CC3)cc1 (field: Concentration of guest molecule in solution) = 327.6

----------
ASSAY NOTES: Guest molecule concentration after incubation in initial medium without polymer (Comparative Example 1)
Assay type: physicochemical
RUN PARAMETERS: 3 h; 37° C.; pH 6.8 phosphate buffer
MEASURE NAME: Concentration of guest molecule measured after different incubated time (ng/mL)
Entry rule: numbers only, all in ng/mL.

The recorded Concentration of guest molecule measured after different incubated time for Cc1c(C)c2c(c(C)c1O)CC[C@@](C)(CCC[C@H](C)CCC[C@H](C)CCCC(C)C)O2 [Vitamin E, vitamin E] is 17900

The recorded Concentration of guest molecule measured after different incubated time for entry CC(=O)c1c(C)c2cnc(Nc3ccc(N4CCNCC4)cn3)nc2n(C2CCCC2)c1=O [Palbociclib] equals 34800

----------
ASSAY NOTES: Binary supramolecular self-assembly systems of polymer and target: guest concentration over incubation time (Comparative Example 2)
Type: physicochemical
RUN PARAMETERS: binary system with 0.5% polymer 103; incubation 6 h
MEASURE NAME: Concentration of the target in the solution measured after different incubation time
Just so you know, I need the unit written after the number.

Recorded result, CNC(=O)c1cc(Oc2ccc(NC(=O)Nc3ccc(Cl)c(C(F)(F)F)c3)cc2)ccn1 [Sorafenib] , Concentration of the target in the solution measured after different incubation time: 38500 ng/mL

response.value for C=C(C)[C@@H]1CCC(C)=C[C@H]1c1c(O)cc(CCCCC)cc1O [Cannabidiol] (field: Concentration of the target in the solution measured after different incubation time) = 55700 ng/mL

Record CNC(=O)c1ccc(N2C(=S)N(c3ccc(C#N)c(C(F)(F)F)c3)C(=O)C2(C)C)cc1F [Enzalutamide] . Reported Concentration of the target in the solution measured after different incubation time: 84400 ng/mL

Recorded result, COc1cc2nccc(Oc3ccc(NC(=O)NC4CC4)c(Cl)c3)c2cc1C(N)=O [Lenvatinib] , Concentration of the target in the solution measured after different incubation time: 7600 ng/mL

// recorded Concentration of the target in the solution measured after different incubation time for Cc1cn(-c2cc(NC(=O)c3ccc(C)c(Nc4nccc(-c5cccnc5)n4)c3)cc(C(F)(F)F)c2)cn1 [Nilotinib] : 181500 ng/mL

Noted for CCOC(=O)C1=C(C)NC(C)=C(C(=O)OC)C1c1cccc(Cl)c1Cl (centres unmarked) [Felodipine] : its Concentration of the target in the solution measured after different incubation time reads 22200 ng/mL

The value of Concentration of the target in the solution measured after different incubation time measured for the compound C=CC(=O)N1CCC[C@@H](n2nc(-c3ccc(Oc4ccccc4)cc3)c3c(N)ncnc32)C1 [Ibrutinib] turned out to be 17100 ng/mL

Kindly note the recorded Concentration of the target in the solution measured after different incubation time for CCCNS(=O)(=O)Nc1ncnc(OCCOc2ncc(Br)cn2)c1-c1ccc(Br)cc1 [Macitentan] , which is 27700 ng/mL

Next:
The reported Concentration of the target in the solution measured after different incubation time of the compound O=C1[C@H](CC[C@H](O)c2ccc(F)cc2)[C@@H](c2ccc(O)cc2)N1c1ccc(F)cc1 [Ezetimibe] was 900 ng/mL

For record O=C1[C@@H]2[C@H]3CC[C@H](C3)[C@@H]2C(=O)N1C[C@@H]1CCCC[C@H]1CN1CCN(c2nsc3ccccc23)CC1 [Lurasidone, lurasidone] the listed Concentration of the target in the solution measured after different incubation time is 4000 ng/mL

----------
ASSAY NOTES: Binary supramolecular self-assembly systems of polymer and target: guest concentration over incubation time (Comparative Example 2)
Type: physicochemical
RUN PARAMETERS: binary system with 0.5% polymer 106; incubation 3 h
Concentration of the target in the solution measured after different incubation time for assorted molecules
Numeric answer only, unit µg/mL assumed.

Entry COc1cc(/C=C/C(=O)CC(=O)/C=C/c2ccc(O)c(OC)c2)ccc1O [Curcumin] — recorded Concentration of the target in the solution measured after different incubation time = 118.1

Value of measured Concentration of the target in the solution measured after different incubation time for the entry CC(=O)c1c(C)c2cnc(Nc3ccc(N4CCNCC4)cn3)nc2n(C2CCCC2)c1=O [Palbociclib] : 60.3

The molecule identified as CCCSc1nc(N[C@@H]2C[C@H]2c2ccc(F)c(F)c2)c2nnn([C@@H]3C[C@H](OCCO)[C@@H](O)[C@H]3O)c2n1 [Ticagrelor] registered its Concentration of the target in the solution measured after different incubation time at 17.4

Given item COC(=O)[C@H](c1ccccc1Cl)N1CCc2sccc2C1 [Clopidogrel, clopidogrel] , the value recorded as its Concentration of the target in the solution measured after different incubation time is 39.3

Concentration of the target in the solution measured after different incubation time reported for this molecule CC#CC(=O)N1CCC[C@H]1c1nc(-c2ccc(C(=O)Nc3ccccn3)cc2)c2c(N)nccn12 [Acalabrutinib, acalabrutinib] : 124.3

molecule COc1cc2nccc(Oc3ccc(NC(=O)NC4CC4)c(Cl)c3)c2cc1C(N)=O [Lenvatinib] , Concentration of the target in the solution measured after different incubation time observed: 7.9

Kindly note the recorded Concentration of the target in the solution measured after different incubation time for C=C(C)[C@@H]1CCC(C)=C[C@H]1c1c(O)cc(CCCCC)cc1O [Cannabidiol] , which is 149.4

Notebook: Cc1cn(-c2cc(NC(=O)c3ccc(C)c(Nc4nccc(-c5cccnc5)n4)c3)cc(C(F)(F)F)c2)cn1 [Nilotinib] , Concentration of the target in the solution measured after different incubation time read as 81.8

According to the records, this molecule O=C(O)[C@H]1O[C@@H](Oc2cc3oc(-c4ccc(O)cc4)cc(=O)c3c(O)c2O)[C@H](O)[C@@H](O)[C@@H]1O [Scutellarin, scutellarin] displays Concentration of the target in the solution measured after different incubation time of 60.8

Record summary for C=CC[C@@H]1/C=C(\C)C[C@H](C)C[C@H](OC)[C@H]2O[C@@](O)(C(=O)C(=O)N3CCCC[C@H]3C(=O)O[C@H](/C(C)=C/[C@@H]3CC[C@@H](O)[C@H](OC)C3)[C@H](C)[C@@H](O)CC1=O)[C@H](C)C[C@@H]2OC [Tacrolimus] : reported Concentration of the target in the solution measured after different incubation time = 65.2

----------
ASSAY NOTES: Binary supramolecular self-assembly systems of polymer and target: guest concentration over incubation time (Comparative Example 2)
Format: physicochemical
RUN PARAMETERS: binary system with 0.5% polymer 101; incubation 6 h
Is Concentration of the target in the solution measured after different incubation time at least 50 µg/mL? Then 1. If not, 0.

Solved entries:
Determine whether measured Concentration of the target in the solution measured after different incubation time meets or exceeds 50 µg/mL for CNC(=O)c1ccc(N2C(=S)N(c3ccc(C#N)c(C(F)(F)F)c3)C(=O)C2(C)C)cc1F [Enzalutamide] 1

Determine whether measured Concentration of the target in the solution measured after different incubation time meets or exceeds 50 µg/mL for COC1=CC(=O)C[C@@H](C)[C@]12Oc1c(Cl)c(OC)cc(OC)c1C2=O [Griseofulvin, griseofulvin] 1

State whether the measured Concentration of the target in the solution measured after different incubation time reaches 50 µg/mL, counting equality as reaching it, for CCOc1nc2cccc(C(=O)OC(C)OC(=O)OC3CCCCC3)c2n1Cc1ccc(-c2ccccc2-c2nnn[nH]2)cc1 (stereo not shown) [Candesartan Cilexetil, candesartan cilexetil] 0

Does CCC(C)n1ncn(-c2ccc(N3CCN(c4ccc(OCC5COC(Cn6cncn6)(c6ccc(Cl)cc6Cl)O5)cc4)CC3)cc2)c1=O (stereo not shown) [Itraconazole, itraconazole] have a reported Concentration of the target in the solution measured after different incubation time of at least 50 µg/mL? 0

Hi, just wondering whether O=C1[C@@H]2[C@H]3CC[C@H](C3)[C@@H]2C(=O)N1C[C@@H]1CCCC[C@H]1CN1CCN(c2nsc3ccccc23)CC1 [Lurasidone, lurasidone] shows Concentration of the target in the solution measured after different incubation time of 50 µg/mL or higher. 0

Attention now shifts to the item below.
// inclusive: Concentration of the target in the solution measured after different incubation time at least 50 µg/mL? input: CC#CC(=O)N1CCC[C@H]1c1nc(-c2ccc(C(=O)Nc3ccccn3)cc2)c2c(N)nccn12 [Acalabrutinib, acalabrutinib] 1
